Target: recombinant Factor XIII (rFXIIIa) (Homo sapiens)
Construct: made in house
Sequence (P00488 39-732 limits assumed): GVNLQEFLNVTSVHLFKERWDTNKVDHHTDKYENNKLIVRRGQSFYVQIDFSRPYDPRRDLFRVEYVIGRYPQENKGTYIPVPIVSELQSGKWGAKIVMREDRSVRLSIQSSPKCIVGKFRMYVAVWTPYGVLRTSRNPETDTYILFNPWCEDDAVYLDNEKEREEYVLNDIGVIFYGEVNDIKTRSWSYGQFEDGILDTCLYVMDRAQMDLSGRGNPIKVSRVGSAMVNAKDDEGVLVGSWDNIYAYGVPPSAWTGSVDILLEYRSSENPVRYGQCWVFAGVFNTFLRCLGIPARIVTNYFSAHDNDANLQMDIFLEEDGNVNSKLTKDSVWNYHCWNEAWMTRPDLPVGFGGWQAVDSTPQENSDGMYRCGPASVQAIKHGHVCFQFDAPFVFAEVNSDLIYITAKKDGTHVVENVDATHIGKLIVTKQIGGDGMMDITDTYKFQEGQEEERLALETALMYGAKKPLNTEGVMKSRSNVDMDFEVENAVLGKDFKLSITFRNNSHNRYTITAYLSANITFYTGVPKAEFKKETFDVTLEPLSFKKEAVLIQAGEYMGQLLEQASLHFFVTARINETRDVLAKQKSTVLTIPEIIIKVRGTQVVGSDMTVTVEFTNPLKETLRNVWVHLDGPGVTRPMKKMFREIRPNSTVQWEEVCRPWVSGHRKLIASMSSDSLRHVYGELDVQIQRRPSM
Test: Factor XIII cross-linking assay of test polypeptide substrates (HPLC area % vs time)
Format: biochemical
Conditions: share of hydrolysis (deamidation) relative to hydrolysis plus crosslinking; same reaction conditions
No end group written: not given here.
observed property: Hydrolysis % (%)
# value in %; strip the unit string

>>> print(df.to_string())
                            sequence_string  observed_property  readout_unit  quantitative_result
0  GVGVPGQHHLGGAKQGVGVP [GVGVPGQ-- HHLGGAKQGVGVP]       Hydrolysis %             %                   23
1  TIGEGQHHLGGAKQAGDV [TIGEGQ-- HHLGGAKQAGDV]       Hydrolysis %             %                    5
2     VPGVGLSQSKVGVPGVG [VPGVGLSQSKVGVPGVG]       Hydrolysis %             %                   45

Proceeding to the next sequence to report its Hydrolysis %.
Could you share which Hydrolysis % value was measured for TIGEGQQHHLGGAKQAGDV [TIGEGQQHHLGGAKQAGDV, reference compound] ?
24

---

molecular target: recombinant Factor XIII (rFXIIIa) (Homo sapiens); construct: made in house; assay: Factor XIII cross-linking assay of test polypeptide substrates (HPLC area % vs time); assay type: biochemical; conditions: initial rate; 2mM substrate; 40 ug/ml rFXIIIa (preactivated); 2.0 U/ml Thrombin; 2.5 mM CaCl2; 125 mM NaCl; 50 mM TrisHCl; pH 7.4
No end group written: not given here.
Catalogue of Monomer Consumption d[S]/dt (rate of substrate utilization) values

Here are 5 substances together with their reported answers.
In [3]: df
Out[3]:
                                  substance                  result
0      GVGGQHHLGGAKQVP [GVGGQ-- HHLGGAKQVP]   -9.8 uM (monomer)/min
1  TIGEGQHHLGAKQAGDV [TIGEGQ-- HHLG-- AKQAGDV]   -7.0 uM (monomer)/min
2          VGQHHLGGAKVPG [VGQ-- HHLGGAKVPG]  -18.0 uM (monomer)/min
3  TIGEGQHHLGGAKQAGDV [TIGEGQ-- HHLGGAKQAGDV]  -12.8 uM (monomer)/min
4  VPGVGGQHHLGGAKQVPGVG [VPGVGGQ-- HHLGGAKQVPGVG]  -12.8 uM (monomer)/min

Could you share which Monomer Consumption d[S]/dt (rate of substrate utilization) value was measured for EGQHHLGGAKQA [-- EGQ-- HHLGGAKQA--] ?
-10.8 uM (monomer)/min

Next up: GQHHLGGAKQ [-- GQ-- HHLGGAKQ--, Gly-Gln-His-His-Leu-Gly-Gly-Ala-Lys-Gln]
-6.9 uM (monomer)/min

Next up: GQHHLGAKQA [-- GQ-- HHL-- GAKQA--]
-8.4 uM (monomer)/min

Next up: GQHHLGGAKA [-- GQ-- HHLGGAK-- A--]
-2.4 uM (monomer)/min

Next up: VPGVGQHHLGGAKVPGVG [VPGVGQ-- HHLGGAKVPGVG]
-20.8 uM (monomer)/min

Next up: GQHHLGGAKQG [GQ-- HHLGGAKQG]
-4.4 uM (monomer)/min

Next up: TIGEGQQHHLGGAKQAGDV [TIGEGQQHHLGGAKQAGDV, reference compound]
-20.0 uM (monomer)/min

---

Catalogue of Crosslinking d(2[S-])/dt (rate of monomer incorporation into dimers) values
Biological target: recombinant Factor XIII (rFXIIIa) (Homo sapiens)
Construct: made in house
Assay: Factor XIII cross-linking assay of test polypeptide substrates (HPLC area % vs time)
Format: biochemical
Conditions: initial rate; 2mM substrate; 40 ug/ml rFXIIIa (preactivated); 2.0 U/ml Thrombin; 2.5 mM CaCl2; pH 7.4
Method: Polypeptides are screened for the ability to form transglutaminase-catalyzed cross-links using a cross-linking assay as described in more detail below. […] Each reaction receives 50 mM CaCl2 to a final concentration of 2.5 mM. […] The ability of the test polypeptides to form Factor XIII-induced multimers, and the susceptibility of the polypeptides to deamidation were assessed using the method described in detail below. […]
No end group written: not given here.

Here are 4 substances together with their reported answers.
>>> print(df.to_string())
                                  substance                             tested_target                 result
0                         LSQSKVG [LSQSKVG]  recombinant Factor XIII (rFXIIIa) (Homo sapiens)   6.8 uM (monomer)/min
1  TIGEGQHHLGAKQAGDV [TIGEGQ-- HHLG-- AKQAGDV]  recombinant Factor XIII (rFXIIIa) (Homo sapiens)   4.0 uM (monomer)/min
2      VGGQHHLGGAKQVPG [VGGQ-- HHLGGAKQVPG]  recombinant Factor XIII (rFXIIIa) (Homo sapiens)  11.0 uM (monomer)/min
3    EGQHHLGAKQAG [-- EGQ-- HHL-- GAKQAG--]  recombinant Factor XIII (rFXIIIa) (Homo sapiens)   3.0 uM (monomer)/min

Proceeding to the next substance to report its Crosslinking d(2[S-])/dt (rate of monomer incorporation into dimers).
Could you share which Crosslinking d(2[S-])/dt (rate of monomer incorporation into dimers) value was measured for GQHHLGAKQA [-- GQ-- HHL-- GAKQA--] ?
8.4 uM (monomer)/min

---

Catalogue of Hydrolysis d[-NH3]/dt (hydrolysis = deamidation) values
biological target: recombinant Factor XIII (rFXIIIa) (Homo sapiens, UniProt P00488); construct: made in house; experiment: Factor XIII cross-linking assay of test polypeptide substrates (HPLC area % vs time); type: biochemical; conditions: initial rate; 2mM substrate; 40 ug/ml rFXIIIa (preactivated); 2.0 U/ml Thrombin; 2.5 mM CaCl2; pH 7.4
No end group written: not given here.

In [3]: df
Out[3]:
                                  substance                 result
0              GQHHLGGAKQG [GQ-- HHLGGAKQG]   0.0 uM (monomer)/min
1  TIGEGQHHLGAKQAGDV [TIGEGQ-- HHLG-- AKQAGDV]   3.0 uM (monomer)/min
2        GQHHLGAKQA [-- GQ-- HHL-- GAKQA--]  -0.2 uM (monomer)/min

Could you share which Hydrolysis d[-NH3]/dt (hydrolysis = deamidation) value was measured for TIGEGQQHHLGGAKQAGDV [TIGEGQQHHLGGAKQAGDV, reference compound] ?
5.2 uM (monomer)/min

Next up: EGQHHLGGAKQA [-- EGQ-- HHLGGAKQA--]
0.0 uM (monomer)/min

Next up: GQHHLGGAKA [-- GQ-- HHLGGAK-- A--]
0.8 uM (monomer)/min

Next up: GVGGQHHLGGAKQVP [GVGGQ-- HHLGGAKQVP]
0.0 uM (monomer)/min

Next up: TIGEGQHHLGGAKAGDV [TIGEGQ-- HHLGGAK-- AGDV]
1.4 uM (monomer)/min

Next up: GVGVPGQHHLGGAKQGVGVP [GVGVPGQ-- HHLGGAKQGVGVP]
1.7 uM (monomer)/min

Next up: TIGEGQHHLGAKQAGDV [TIGEGQ-- HHL-- GAKQAGDV]
5.4 uM (monomer)/min

Next up: VPGVGLSQSKVGVPGVG [VPGVGLSQSKVGVPGVG]
12.5 uM (monomer)/min

Next up: TIGEGQHHLGGAKQAGDV [TIGEGQ-- HHLGGAKQAGDV]
0.6 uM (monomer)/min

Next up: GQHHLGGAKQ [-- GQ-- HHLGGAKQ--, Gly-Gln-His-His-Leu-Gly-Gly-Ala-Lys-Gln]
0.0 uM (monomer)/min

Next up: VPGVGGQHHLGGAKQVPGVG [VPGVGGQ-- HHLGGAKQVPGVG]
0.0 uM (monomer)/min

Next up: GEGQHHLGGAKQAG [-- GEGQ-- HHLGGAKQAG--]
0.4 uM (monomer)/min

Next up: VGQHHLGGAKVPG [VGQ-- HHLGGAKVPG]
0.0 uM (monomer)/min

Next up: LSQSKVG [LSQSKVG]
1.2 uM (monomer)/min

Next up: IGEGQHHLGGAKQAGD [-- IGEGQ-- HHLGGAKQAGD--]
-1.4 uM (monomer)/min
